- Test system: FLT1
metric-name: pKd
Worth noting: pKd values are minus log10 of concentrations stated in mol/L.

Query: System FLT1. Read-out pKd. Item Cn1ccc2ncnc(Oc3ccc(NC(=O)Nc4ccccc4)cc3)c21 . Report value.
Result: 6.46

----------
- Tested on: BUB1;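 note: KINOMEscan kinase panel screen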
- run-conditions: concentration: 1 μM, replicates: in singlicate; n = 1
Quick list: %Inh per entry.
# number only, unit % dropped from output

Before answering, review these 10 worked examples.
>>> print(df.to_string())
                                   molecule  measurement_target  metric_name  obs_value
0                CCn1c(-c2ccccn2)nc2cnccc21                BUB1         %Inh         40
1  O=C(Nc1n[nH]c2nc(-c3nccs3)c(Br)cc12)C1CC1                BUB1         %Inh         48
2       Nc1nc(-c2nccs2)c(-c2ccnc3ccccc23)s1                BUB1         %Inh         47
3  Cl.O=C(Nc1cccc(-c2nn3ncccc3c2-c2ccnc(Nc3cccnc3)n2)c1)c1c(F)cccc1F                BUB1         %Inh          7
4  CCCc1ccc(S(=O)(=O)NC2CCN(c3ccnc(Nc4ccc(F)cc4)n3)C2)cc1 (stereo not drawn)                BUB1         %Inh         29
5  CC1=C(C(=O)Nc2cc3cn[nH]c3cc2F)C(c2ccc(C(F)(F)F)cc2)CC(=O)N1 (stereo not drawn)                BUB1         %Inh         18
6  Cc1ccc(NC(=O)Nc2cc(C(C)(C)C)nn2-c2ccccc2)cc1                BUB1         %Inh         21
7  O=C(Nc1n[nH]c2cc(-c3cccc(F)c3F)ccc12)C1CC1                BUB1         %Inh          0
8  Cn1ccc2ncnc(Oc3ccc(Nc4nc5ccccc5[nH]4)cc3)c21                BUB1         %Inh          0
9  Cc1ccc(-c2cc(-c3c[nH]nc3-c3ccccn3)ccn2)cc1                BUB1         %Inh         40

Query: Fill in reported %Inh for this entry: CS(=O)(=O)c1ccc(-c2nc3n(c2-c2ccncc2)CCC3)cc1
Result: 26

Query: Return %Inh (reported value) for this molecule: Cc1cccc(-c2nc(C)cc(Nc3ccncc3)n2)n1
Result: 9

Query: State, in one line, measured %Inh of Cc1cc(N2Cc3ccccc3C2)nc(Nc2ccc(S(=O)(=O)N3CCOCC3)cc2)n1.Cl
Result: 21

Query: Please give the documented %Inh of COc1ccc2nc(-c3cccc(C)n3)nc(Nc3ccncc3)c2c1
Result: 38

----------
- System: EGFR
metric-name: pKd
Lab note — pKd values are minus log10 of concentrations in M.

>>> df
                      smiles_representation  measurement_target  metric_name  obs_value
0  Cl.O=C(Nc1cccc(-c2nn3ncccc3c2-c2ccnc(Nc3cccnc3)n2)c1)c1c(F)cccc1F                EGFR          pKd       7.42

# context switch: different molecule, same pKd
Query: Note pKd for the molecule shown: Cl.NC(=O)c1cccc(Nc2nccc(Nc3ccc(Oc4cccc(Cl)c4)c(Cl)c3)n2)c1
Result: 6.92

Sourced from paper PMC5540273
